# assay-text: Induction of anti-CD3/CD28 antibodies-stimulated human T cell activation at 1 uM assessed fold increase in IL-2 secretion measured by ELISA assay
# Format: functional, T cell line
quantity-kind: fold change (FC)

* Cn1cnnc1CC1(c2cccc(N3Cc4c(cc(CN5CCC(C#N)CC5)cc4C(F)(F)F)C3=O)c2)COC1 | >=7.5
* C[C@@H](c1cc2c(c(C(F)(F)F)c1)CN(c1cccc(C3(Cc4nncn4C)COC3)c1)C2=O)N1CC(F)C1 | >=7.5
* Cn1cnnc1CC1(c2cccc(N3Cc4c(cc(N5CCN6CCC[C@H]6C5)cc4C(F)(F)F)C3=O)c2)COC1 | >=7.5
* C[C@H](Sc1nncn1C)c1cccc(NC(=O)c2cc(C(=O)N3CC(O)C3)ccn2)c1 | <=1
